- Target entity: Metabotropic glutamate receptor 5 (Rattus norvegicus)
- Sequence (P31424 whole entry, looked up): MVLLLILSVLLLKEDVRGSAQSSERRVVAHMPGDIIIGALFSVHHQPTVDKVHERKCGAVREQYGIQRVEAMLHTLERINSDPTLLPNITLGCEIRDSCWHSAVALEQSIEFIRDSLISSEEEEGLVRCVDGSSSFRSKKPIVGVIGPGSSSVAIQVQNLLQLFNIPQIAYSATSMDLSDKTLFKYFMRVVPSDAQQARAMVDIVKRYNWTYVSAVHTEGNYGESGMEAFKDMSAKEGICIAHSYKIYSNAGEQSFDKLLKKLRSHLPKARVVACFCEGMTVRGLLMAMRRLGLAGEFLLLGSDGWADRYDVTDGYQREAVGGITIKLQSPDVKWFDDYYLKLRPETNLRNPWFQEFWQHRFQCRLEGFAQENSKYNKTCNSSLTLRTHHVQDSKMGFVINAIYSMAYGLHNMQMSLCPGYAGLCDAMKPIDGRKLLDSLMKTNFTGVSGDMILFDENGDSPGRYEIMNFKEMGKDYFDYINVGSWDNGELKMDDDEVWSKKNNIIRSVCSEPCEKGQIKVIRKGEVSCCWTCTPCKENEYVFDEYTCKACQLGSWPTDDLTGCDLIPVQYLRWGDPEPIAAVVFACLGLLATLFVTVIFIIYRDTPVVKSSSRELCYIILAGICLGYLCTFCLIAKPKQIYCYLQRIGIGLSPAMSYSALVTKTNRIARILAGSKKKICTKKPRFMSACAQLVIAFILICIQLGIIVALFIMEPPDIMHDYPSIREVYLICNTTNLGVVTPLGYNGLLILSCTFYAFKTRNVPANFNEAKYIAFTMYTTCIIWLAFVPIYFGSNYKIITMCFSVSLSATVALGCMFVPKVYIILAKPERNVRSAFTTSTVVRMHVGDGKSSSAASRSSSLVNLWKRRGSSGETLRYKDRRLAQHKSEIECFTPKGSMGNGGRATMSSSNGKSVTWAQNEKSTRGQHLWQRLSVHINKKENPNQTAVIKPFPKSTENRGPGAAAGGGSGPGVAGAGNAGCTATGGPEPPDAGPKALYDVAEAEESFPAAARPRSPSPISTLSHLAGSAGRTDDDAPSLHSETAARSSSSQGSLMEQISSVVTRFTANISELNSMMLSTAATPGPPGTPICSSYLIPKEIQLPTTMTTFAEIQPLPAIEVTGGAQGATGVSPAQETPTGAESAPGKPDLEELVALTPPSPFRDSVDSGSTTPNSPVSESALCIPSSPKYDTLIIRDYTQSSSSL
- Experiment notes: Positive allosteric modulator activity at mGluR5 receptor expressed in HEK293A cells assessed as effect on glutamate-induced calcium flux preincubated for 140 secs before glutamate challenge by calcium fluorescence assay
- Assay type: functional, cell-based, HEK293-A
The entries below come with measured log10(EC50) values attached.
Measured metric: log10(EC50) (log10 of the value in µM)

[[record]]
molecule = "O=C(C1CCC1)N1CCC[C@H]1c1nc(-c2cccc(F)c2)no1"
measured_metric = "log10(EC50)"
observed = 0.85

[[record]]
molecule = "O=C(C1CCC1)N1CCCC[C@@H]1c1nc(-c2cccc(F)c2)no1 (stereo in doubt; (R)-20c)"
measured_metric = "log10(EC50)"
observed = -0.22

[[record]]
molecule = "O=C(C1CCC1)N1CCC[C@@H]1c1nc(-c2cccc(F)c2)no1"
measured_metric = "log10(EC50)"
observed = -0.28

[[record]]
molecule = "O=C(c1ccc(F)cc1F)N1CCCC1c1nc(-c2cccc(F)c2)no1 (stereo not drawn)"
measured_metric = "log10(EC50)"
observed = 1.00

[[record]]
molecule = "O=C(C1CCCCC1)N1CCCC[C@@H]1c1nc(-c2cccc(F)c2)no1"
measured_metric = "log10(EC50)"
observed = 0.54

[[record]]
molecule = "O=C(c1ccc(F)c(F)c1)N1CCCC[C@@H]1c1nc(-c2cccc(F)c2)no1"
measured_metric = "log10(EC50)"
observed = 0.15

[[record]]
molecule = "O=C(c1ccc(F)cc1)N1CCCC1c1nc(-c2cccc(F)c2)no1 (stereo not drawn)"
measured_metric = "log10(EC50)"
observed = 0.56

[[record]]
molecule = "O=C(C1CC1)N1CCCC1c1nc(-c2cccc(F)c2)no1 (stereo not drawn)"
measured_metric = "log10(EC50)"
observed = 0.46


====

- Target entity: Metabotropic glutamate receptor 5 (Rattus norvegicus)
- Experiment notes: Negative allosteric modulator activity at mGluR5 receptor expressed in HEK293A cells assessed as inhibition of glutamate-induced calcium flux preincubated for 140 secs before glutamate challenge by calcium fluorescence assay
- Type: functional, cell-based, HEK293-A
Classes by IC50: range 1 = under 2000 nM, range 2 = from 2000 nM up to 4000 nM, range 3 = 4000 nM and over

[[record]]
smiles_notation = "COc1cccc(-c2noc([C@@H]3CCCN(C(=O)C4CCC4)C3)n2)c1"
label_class = "range 3"

[[record]]
smiles_notation = "COc1cccc(-c2noc([C@@H]3CCCCN3C(=O)C3CCC3)n2)c1"
label_class = "range 1"

[[record]]
smiles_notation = "O=C(C1CCC1)N1CCCC[C@@H]1c1nc(-c2cccs2)no1"
label_class = "range 2"

[[record]]
smiles_notation = "O=C(C1CCC1)N1CCCC[C@H]1c1nc(-c2cccs2)no1"
label_class = "range 2"

[[record]]
smiles_notation = "Cc1cccc(-c2noc([C@H]3CCCCN3C(=O)c3ccc(F)cc3)n2)c1"
label_class = "range 3"

[[record]]
smiles_notation = "Cc1cccc(-c2noc([C@@H]3CCCN(C(=O)C4CCC4)C3)n2)c1"
label_class = "range 3"

[[record]]
smiles_notation = "O=C(C1CCC1)N1CCC[C@H](c2nc(-c3cccc(F)c3)no2)C1"
label_class = "range 2"

[[record]]
smiles_notation = "O=C(C1CCC1)N1CCC[C@@H](c2nc(-c3cccc(Cl)c3)no2)C1"
label_class = "range 2"

[[record]]
smiles_notation = "Cc1cccc(-c2noc([C@H]3CCCCN3C(=O)c3cccs3)n2)c1"
label_class = "range 1"

[[record]]
smiles_notation = "COc1cccc(-c2noc([C@H]3CCCN(C(=O)C4CCC4)C3)n2)c1"
label_class = "range 1"

